# target_desc: T1, β Amyloid peptide 1-40 (human, UniProt P05067 672-711)
# T1 construct: domain: β Amyloid peptide 1-40; Biotinylated peptide 1-40 (Biosource) on avidin Sepharose only captured free antibody in KinExA; also called Aβ 1-40; human Aβ (1-40)
# assay_summary: KinExA, mAb, equilibration 16 h
Binary call on koff with cut-off 0.0002 s⁻¹: strictly below means TRUE, and equality or higher means FALSE.

Example cases with answers are listed next.
1) m266 monoclonal antibody (antibody, V domains shown, CDR H2 N-glycosylated at the Asn-Ser-Thr sequence, Captured by goat anti-mouse Fc in BIAcore (mouse Fc); also called mouse antibody 266) VH: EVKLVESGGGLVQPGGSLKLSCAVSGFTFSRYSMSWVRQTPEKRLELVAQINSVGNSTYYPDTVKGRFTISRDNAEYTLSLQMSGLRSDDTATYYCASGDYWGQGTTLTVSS VL: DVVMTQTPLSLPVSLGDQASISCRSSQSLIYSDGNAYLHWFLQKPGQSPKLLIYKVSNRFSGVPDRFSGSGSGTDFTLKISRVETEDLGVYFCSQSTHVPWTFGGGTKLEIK :: TRUE
2) 1B7 monoclonal antibody (IgG1) (antibody, V domains shown) VH: EVQLVESGGGLVKPGGSLRLSCAASGFTFSRYSMSWVRQAPGKGLEWVGQINSRGNSTYYPDTVKGRFTISRDDSKNTLYLQMNSLKTEDTAVYYCTTGDFWGQGTLVTVSS VL: DIVMTQTPLSLSVTPGQPASISCRSSQSLIYSDGNAYLHWYLQKPGQSPQLLIYKVSNRFSGVPDRFSGSGSGTDFTLKISRVEAEDVGVYYCSQSTHSPWTFGGGTKVEIK :: FALSE
3) 6C3 monoclonal antibody (IgG1) (antibody, V domains shown) VH: EVQLVESGGGLVKPGGSLRLSCAASGFTFSRYSMSWVRQAPGKGLEWVGQINSRGNSTYYPDTVKGRFTISRDDSKNTLYLQMNSLKTEDTAVYYCTTGDFWGQGTLVTVSS VL: DIVMTQTPLSLSVTPGQPASISCRSSQSLIYSDGNAYLHWYLQKPGQSPQLLIYKVSNRFSGVPDRFSGSGSGTDFTLKISRVEAEDVGVYYCTQSTHSPWTFGGGTKVEIK :: TRUE
4) 1C5 monoclonal antibody (IgG1) (antibody, V domains shown) VH: EVQLVESGGGLVKPGGSLRLSCAASGFTFSRYSMSWVRQAPGKGLEWVGQINSVANSTYYPDTVKGRFTISRDDSKNTLYLQMNSLKTEDTAVYYCTTGDFWGQGTLVTVSS VL: DIVMTQTPLSLSVTPGQPASISCRSSQSLIYSDGNAYLHWYLQKPGQSPQLLIYKVSNRFSGVPDRFSGSGSGTDFTLKISRVEAEDVGVYYCSQSTHSPWTFGGGTKVEIK :: FALSE

Shift focus to the following entry.
Query: is_below(koff, 0.0002 s⁻¹) for 1D4 monoclonal antibody (IgG1) (antibody, V domains shown) VH: EVQLVESGGGLVKPGGSLRLSCAASGFTFSRYSMSWVRQAPGKGLEWVGQINSQGNSTYYPDTVKGRFTISRDDSKNTLYLQMNSLKTEDTAVYYCTTGDRWGQGTLVTVSS VL: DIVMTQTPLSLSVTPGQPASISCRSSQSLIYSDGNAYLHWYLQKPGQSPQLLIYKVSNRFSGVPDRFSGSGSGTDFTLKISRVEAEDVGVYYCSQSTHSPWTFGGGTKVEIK ?
Result: FALSE
